Provide the recorded pIC50 for the entries that follow.
- system_name: human ACC2 (Homo sapiens, UniProt O00763)
- Construct: made in house; host or cells: insect cells (baculoviral expression system)
- Sequence (O00763 129-2458 limits assumed): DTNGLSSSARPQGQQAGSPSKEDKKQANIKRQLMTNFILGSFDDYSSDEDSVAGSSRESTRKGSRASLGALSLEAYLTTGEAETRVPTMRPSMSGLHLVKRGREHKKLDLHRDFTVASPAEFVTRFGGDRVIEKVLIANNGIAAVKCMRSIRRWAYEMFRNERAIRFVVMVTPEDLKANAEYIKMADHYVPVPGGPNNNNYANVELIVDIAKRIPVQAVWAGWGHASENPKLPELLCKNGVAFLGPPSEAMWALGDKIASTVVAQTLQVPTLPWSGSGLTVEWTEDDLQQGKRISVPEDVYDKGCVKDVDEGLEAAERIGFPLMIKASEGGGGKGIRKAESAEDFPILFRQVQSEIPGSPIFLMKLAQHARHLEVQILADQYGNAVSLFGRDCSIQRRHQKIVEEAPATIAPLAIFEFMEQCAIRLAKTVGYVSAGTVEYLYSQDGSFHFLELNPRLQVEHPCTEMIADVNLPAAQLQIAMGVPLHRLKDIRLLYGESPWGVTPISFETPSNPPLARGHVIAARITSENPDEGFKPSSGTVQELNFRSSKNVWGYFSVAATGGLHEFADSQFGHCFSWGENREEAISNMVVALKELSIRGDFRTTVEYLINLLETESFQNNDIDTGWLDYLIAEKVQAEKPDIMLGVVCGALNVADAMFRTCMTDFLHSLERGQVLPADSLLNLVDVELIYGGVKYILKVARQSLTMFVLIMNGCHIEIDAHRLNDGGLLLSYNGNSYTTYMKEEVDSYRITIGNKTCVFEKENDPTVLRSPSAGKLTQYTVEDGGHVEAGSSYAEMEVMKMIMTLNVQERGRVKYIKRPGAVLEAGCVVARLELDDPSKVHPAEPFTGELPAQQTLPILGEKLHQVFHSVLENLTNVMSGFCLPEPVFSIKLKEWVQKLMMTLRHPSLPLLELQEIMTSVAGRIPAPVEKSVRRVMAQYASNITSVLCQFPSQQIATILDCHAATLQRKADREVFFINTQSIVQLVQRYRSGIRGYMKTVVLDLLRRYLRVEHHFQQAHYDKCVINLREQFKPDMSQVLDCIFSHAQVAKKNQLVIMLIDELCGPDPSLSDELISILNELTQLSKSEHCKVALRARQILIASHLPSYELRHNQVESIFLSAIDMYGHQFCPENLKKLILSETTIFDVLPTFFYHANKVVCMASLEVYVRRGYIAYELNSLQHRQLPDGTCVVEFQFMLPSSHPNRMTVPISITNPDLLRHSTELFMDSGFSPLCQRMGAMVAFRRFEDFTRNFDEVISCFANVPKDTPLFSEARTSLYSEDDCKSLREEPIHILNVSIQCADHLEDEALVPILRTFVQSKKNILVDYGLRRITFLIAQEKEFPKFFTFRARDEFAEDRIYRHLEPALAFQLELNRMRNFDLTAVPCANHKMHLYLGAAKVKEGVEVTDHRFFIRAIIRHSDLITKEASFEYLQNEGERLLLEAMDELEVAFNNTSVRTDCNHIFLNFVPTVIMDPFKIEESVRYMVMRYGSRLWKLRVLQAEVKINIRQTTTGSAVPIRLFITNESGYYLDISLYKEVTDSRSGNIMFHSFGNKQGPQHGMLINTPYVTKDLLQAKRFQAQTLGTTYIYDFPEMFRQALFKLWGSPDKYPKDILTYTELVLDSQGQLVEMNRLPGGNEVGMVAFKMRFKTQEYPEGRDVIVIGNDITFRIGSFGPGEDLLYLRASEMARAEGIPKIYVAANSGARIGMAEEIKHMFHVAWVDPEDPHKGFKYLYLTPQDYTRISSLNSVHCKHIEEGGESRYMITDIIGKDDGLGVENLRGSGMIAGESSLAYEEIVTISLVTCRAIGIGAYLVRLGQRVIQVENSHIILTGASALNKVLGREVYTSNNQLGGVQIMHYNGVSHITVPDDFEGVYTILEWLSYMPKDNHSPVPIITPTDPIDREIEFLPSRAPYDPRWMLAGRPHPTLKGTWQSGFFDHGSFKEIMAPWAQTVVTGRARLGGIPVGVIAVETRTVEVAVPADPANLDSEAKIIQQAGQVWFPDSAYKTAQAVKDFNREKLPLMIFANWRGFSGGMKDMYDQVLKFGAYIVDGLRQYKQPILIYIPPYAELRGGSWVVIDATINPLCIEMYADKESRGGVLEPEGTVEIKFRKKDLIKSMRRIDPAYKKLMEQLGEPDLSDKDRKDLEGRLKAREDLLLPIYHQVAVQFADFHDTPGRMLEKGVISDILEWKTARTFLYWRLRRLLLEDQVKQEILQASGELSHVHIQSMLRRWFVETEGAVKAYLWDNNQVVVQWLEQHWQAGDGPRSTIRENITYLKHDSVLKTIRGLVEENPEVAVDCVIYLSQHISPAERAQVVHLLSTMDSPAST
- protocol: ACC2 assay, spectrophotometric 384 well assay (NADH-linked, coupled lactate dehydrogenase/pyruvate kinase)
- Type: biochemical
- protocol_conditions: ACC2 assay, hACC2 construct lacking 128 N-terminal amino acids, 25° C., 340 nm; read-out: IC50
Give bare numbers, as −log10 of the molar value.

| smiles_entry | measure | value_reported |
| --- | --- | --- |
| CC(=O)N[C@@H](C)c1ccc(C2CCN(c3ncc(C4=CCC5(CC4)OCCO5)cn3)CC2)cc1 | pIC50 | 5.37 |
| CC(=O)N[C@@H](C)c1ccc(C2CCN(c3ncc(-c4cnc5ccccc5c4)cn3)CC2)cc1 | pIC50 | 7.15 |
| CC(=O)N[C@@H](C)c1ccc(C2CCN(c3ccc(OCC(C)C)cc3)CC2)cc1 | pIC50 | 6.13 |

q: Name the reported pIC50 value associated with the molecule "COc1cccc(N2CCC(c3ccc([C@H](C)NC(C)=O)cc3)CC2)n1"
a: 6.20

###

- system_name: human ACC2 (Homo sapiens, UniProt O00763)
- Construct: made in house; host or cells: insect cells (baculoviral expression system)
- protocol: ACC2 assay, spectrophotometric 384 well assay (NADH-linked, coupled lactate dehydrogenase/pyruvate kinase)
- Assay type: biochemical
- protocol_conditions: ACC2 assay, hACC2 construct lacking 128 N-terminal amino acids, 25° C., 340 nm; read-out: IC50
Provide the reported pIC50 of each item.
Numbers only, as −log10 of the molar value.

Use these answered entries as a reference point.
| molecule | pIC50 |
| --- | --- |
| CC(=O)N[C@@H](C)c1ccc(C2CCN(c3ccc(Cl)c(F)c3)CC2)cc1 | 6.19 |
| COC1CCN(c2cc(N3CCC(c4ccc([C@H](C)NC(C)=O)cc4)CC3)ncn2)CC1 | 5.64 |

Look at each molecule and report its pIC50.
1. COc1ccc(-c2cnc(N3CCC(c4ccc([C@H](C)NC(C)=O)cc4)CC3)nc2)cc1Cl
2. CC(=O)N[C@@H](C)c1ccc(C2CCN(c3ccnc(N4CCC5(CC5)C4)n3)CC2)cc1
3. CC(=O)N[C@@H](C)c1ccc(C2CCN(c3ncc(C(=O)NCCC(C)O)cn3)CC2)cc1 (some centres unmarked)
4. CC(=O)N[C@@H](C)c1ccc(C2CCN(c3cccc(OCC4CC4)c3)CC2)cc1

a:
6.62
6.26
4.75
6.70

Field: pIC50. Fill in for each record below.
1. COc1cc(C)c(-c2cnc(N3CCC(c4ccc([C@H](C)NC(C)=O)cc4)CC3)nc2)c(C)c1
2. CC(=O)N[C@@H](C)c1ccc(C2CCN(c3ncc(Br)cc3F)CC2)cc1

a:
1. 6.46
2. 6.24

###

- system_name: human ACC2 (Homo sapiens)
- Construct: made in house; host or cells: insect cells (baculoviral expression system)
- protocol: ACC2 assay, spectrophotometric 384 well assay (NADH-linked, coupled lactate dehydrogenase/pyruvate kinase)
- Assay type: biochemical
- protocol_conditions: ACC2 assay, hACC2 construct lacking 128 N-terminal amino acids, 25° C., 340 nm; read-out: IC50
Exam item: assign 1 to entries whose IC50 is below 2 µM and -1 to entries at or above 2 µM. Note that a value of exactly 2 µM receives -1.

Reference set (3 entries):
| molecule | system_name | assigned_class |
| --- | --- | --- |
| COc1ncccc1-c1cnc(N2CCC(c3ccc([C@H](C)NC(C)=O)cc3)CC2)nc1 | human ACC2 (Homo sapiens) | 1 |
| CCN(C(C)=O)[C@@H](C)c1ccc(C2CCN(c3ccc(OCC4CC4)cc3)CC2)cc1 | human ACC2 (Homo sapiens) | 1 |
| CC(=O)N[C@@H](C)c1ccc(C2CCN(c3ncc(C(=O)N4CCC(C(N)=O)CC4)cn3)CC2)cc1 | human ACC2 (Homo sapiens) | -1 |

q: In the record for "CC(=O)N[C@@H](C)c1ccc(C2CCN(c3ncc(-c4ccc5cc[nH]c5c4)cn3)CC2)cc1" , is IC50 less than 2 µM?
a: 1

q: Input "CC(=O)N[C@@H](C)c1ccc(C2CCN(c3ncc(C(=O)N(C)C4CC4)cn3)CC2)cc1" ; condition: IC50 strictly below 2 µM. Does it hold?
a: -1

###

Assignment: determine reported pIC50 for the given compounds.
- system_name: human ACC2 (Homo sapiens)
- Construct: made in house; host or cells: insect cells (baculoviral expression system)
- protocol: ACC2 assay, spectrophotometric 384 well assay (NADH-linked, coupled lactate dehydrogenase/pyruvate kinase)
- Assay type: biochemical
- protocol_conditions: ACC2 assay, hACC2 construct lacking 128 N-terminal amino acids, 25° C., 340 nm; read-out: IC50
Numbers only, as −log10 of the molar value.

| compound | system_name | pIC50 |
| --- | --- | --- |
| CCOc1ccc(N2CCC(c3ccc([C@H](C)NC(=O)/C=N/OC)cc3)CC2)cc1 | human ACC2 (Homo sapiens) | 5.96 |
| CCOc1ccc(N2CCC(c3ccc([C@H](C)NC(=O)c4ncc[nH]4)cc3)CC2)cc1 | human ACC2 (Homo sapiens) | 5.15 |
| CC(=O)N[C@@H](C)c1ccc(C2CCN(c3ncc(C(=O)NCc4cocn4)cn3)CC2)cc1 | human ACC2 (Homo sapiens) | 5.19 |
| CC(=O)N[C@@H](C)c1ccc(C2CCN(c3ccnc(Oc4ccccc4F)n3)CC2)cc1 | human ACC2 (Homo sapiens) | 6.42 |
| CC(=O)N[C@@H](C)c1ccc(C2CCN(c3ccc4nnn(C)c4n3)CC2)cc1 | human ACC2 (Homo sapiens) | 5.62 |
| CC(=O)N[C@@H](C)c1ccc(C2CCN(c3ccc(I)cn3)CC2)cc1 | human ACC2 (Homo sapiens) | 6.66 |
| COC(=O)N[C@@H](C)c1ccc(C2CCN(c3ncc4nc(-c5ccccc5)oc4n3)CC2)cc1 | human ACC2 (Homo sapiens) | 6.89 |
| CCCOc1ccc(N2CCC(c3ccc(C(CC)NC(C)=O)cc3)CC2)c(OC)c1 (stereo not shown) | human ACC2 (Homo sapiens) | 5.41 |

Batch request: pIC50 per item, same order as input.
1. CC(=O)N[C@@H](C)c1ccc(C2CCN(c3nc(C)c4ccccc4n3)CC2)cc1
2. CC(=O)N[C@@H](C)c1ccc(C2CCN(c3cc(OC4CCC4)ncn3)CC2)cc1

a:
[6.14, 7.10]

Return reported pIC50 values for all items listed beneath this line.
1. COC(=O)N[C@@H](C)c1ccc(C2CCN(c3ccc(OC4CCC4)cc3)CC2)cc1
2. CCC(CC)Oc1cc(N2CCC(c3ccc([C@H](C)NC(C)=O)cc3)CC2)ccn1
3. CC(=O)N[C@@H](C)c1ccc(C2CCN(c3ncc(C(=O)NC4(C#N)CC4)cn3)CC2)cc1
4. CCOc1cnc(N2CCC(c3ccc([C@H](C)NC(C)=O)cc3)CC2)nc1
5. COc1cc(-c2cnc(N3CCC(c4ccc([C@H](C)NC(C)=O)cc4)CC3)nc2)ccn1

a:
7.10
6.62
4.76
6.34
6.89

q: If you can, please state the reported pIC50 value of "COc1cc(OC2CC2)ccc1N1CCC(c2ccc([C@H](C)NC(=O)N(C)C)cc2)CC1" .
a: 6.77

###

- system_name: human ACC2 (Homo sapiens, UniProt O00763)
- Construct: made in house; host or cells: insect cells (baculoviral expression system)
- protocol: ACC2 assay, spectrophotometric 384 well assay (NADH-linked, coupled lactate dehydrogenase/pyruvate kinase)
- Format: biochemical
- protocol_conditions: ACC2 assay, hACC2 construct lacking 128 N-terminal amino acids, 25° C., 340 nm; read-out: IC50
What log10 IC50 was measured for each of the following?
Note: values are log10 of IC50 expressed in nM.

Worked examples, 5 compounds total:
| compound | value_reported |
| --- | --- |
| CCOc1ccc(N2CCC(c3ccc([C@H](C)NC(=O)OC)cc3)CC2)c(F)c1 | 2.60 |
| CCOc1ccc(N2CCC(c3ccc([C@H](C)NC(C)=O)cc3)CC2)cc1C#N | 3.75 |
| COc1ccc(N2CCC(c3ccc([C@H](C)NC(C)=O)cc3)CC2)cc1C#N | 3.85 |
| CC(=O)N[C@@H](C)c1ccc(C2CCN(c3ncc(-c4ccccc4C)cn3)CC2)cc1 | 2.30 |
| CC(=O)N[C@@H](C)c1ccc(C2CCN(c3ccnc(N(C)C)n3)CC2)cc1 | 2.78 |

List log10 IC50 for every entry below, keeping the order given.
1. C[C@H](NC(=O)N(C)C)c1ccc(C2CCN(c3ccc4c(c3)OCC(C)(C)CO4)CC2)cc1
2. CC(=O)N[C@@H](C)c1ccc(C2CCN(c3ccnc(OC(C)C)c3)CC2)cc1
3. CC(=O)N[C@@H](C)c1ccc(C2CCN(c3ncc(-c4cc5cc(C#N)ccc5[nH]4)cn3)CC2)cc1
4. CCCC(C)Oc1ccc(N2CCC(c3ccc([C@H](C)NC(C)=O)cc3)CC2)cc1Cl (stereo partly shown)
5. CCOc1ccc(N2CCC(c3ccc([C@H](C)NC(=O)C4(C(F)(F)F)CC4)cc3)CC2)cc1
6. CC(=O)N[C@@H](C)c1ccc(C2CCN(c3ccnc(OCc4ccccn4)c3)CC2)cc1
7. CCOC(=O)c1ccnc(N2CCC(c3ccc([C@H](C)NC(C)=O)cc3)CC2)c1C

a:
[2.08, 2.04, 2.83, 2.26, 2.40, 3.08, 2.23]
